experiment: clinical; conditions: human, in vivo, po

# compound, concentration at 1 day
measured = [
    ("O=C(Nc1c(Cl)cncc1Cl)c1ccc(OC(F)F)c(OCC2CC2)c1 [roflumilast]", "~5.7 ng/mL"),
]

====

assay: clinical; conditions: human, in vivo, po
quantity_measured: concentration at 72 hours

# structure_as_smiles, result_value
records = [
    ("O=C(Nc1c(Cl)cncc1Cl)c1ccc(OC(F)F)c(OCC2CC2)c1", "~1.4 ng/mL"),
]

====

assay: optional elimination phase assessment at end of treatment with ARQ-151 cream in psoriasis; assay type: in vivo, human; settings: human, plasma; after topical administration of a formulation with self-emulsifying wax blend of dicetyl phosphate and ceteth-10 phosphate and a solvent; read-out: plasma half-life of roflumilast
quantity_measured: half-life

# structure_as_smiles, quantity_measured, result_value
rows = [
    ("O=C(Nc1c(Cl)cncc1Cl)c1ccc(OC(F)F)c(OCC2CC2)c1", "half-life", "81.6 to 88.8 h"),
]

The reported numbers originate from patent US12005051B2.
